- study-target: Triosephosphate isomerase, glycosomal (Trypanosoma cruzi, UniProt P52270)
- Sequence (P52270 whole entry): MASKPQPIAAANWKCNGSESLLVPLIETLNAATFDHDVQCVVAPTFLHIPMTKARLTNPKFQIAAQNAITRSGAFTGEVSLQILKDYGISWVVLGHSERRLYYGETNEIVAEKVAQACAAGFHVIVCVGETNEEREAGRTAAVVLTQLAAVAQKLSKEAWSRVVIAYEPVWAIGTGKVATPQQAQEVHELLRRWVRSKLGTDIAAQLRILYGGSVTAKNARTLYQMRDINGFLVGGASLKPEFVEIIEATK
- test-method-notes: Inhibition of Trypanosoma cruzi recombinant triosephosphate isomerase after 2 hrs
- test-parameters: read-out: I50
measured-quantity: IC50 (µM)
Enter your answer as a number in µM; do not include the unit.

CCOC(=O)C1CC(=O)c2oc(=O)c3cc(O)c(O)c(O)c3c21 (centres undefined) [ETHYLBREVIFOLIN CARBOXYLATE] ... 8
CCCCOC(=O)C1CC(=O)c2oc(=O)c3cc(O)c(O)c(O)c3c21 (centres undefined) [BUTYLBREVIFOLIN CARBOXYLATE] ... 14

Next molecule, please.
COC(=O)C1CC(=O)c2oc(=O)c3cc(O)c(O)c(O)c3c21 (centres undefined) [METHYLBREVIFOLIN CARBOXYLATE] yielded IC50 of 6.5

----------
- study-target: UniProt:P52270
- test-method-notes: Binding affinity to Trypanosoma cruzi recombinant triosephosphate isomerase
- test-parameters: read-out: Kd(app)
measured-quantity: Kd

Field Kd (UniProt:P52270), entry COC(=O)C1CC(=O)c2oc(=O)c3cc(O)c(O)c(O)c3c21 (stereo unspecified) [METHYLBREVIFOLIN CARBOXYLATE] : 10.4 µM
